Can you tell me pKd for the items I'm about to list?
B1: NELF-E aptamer (parent)
chain: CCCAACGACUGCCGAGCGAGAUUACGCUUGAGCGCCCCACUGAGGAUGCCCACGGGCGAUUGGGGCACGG

- Variants of: B1
- assay.remarks: HiTS-RAP
- test.settings: with NELF-E (Drosophila)
pKd is a log-scale quantity: -log10 of the concentration expressed in molar.

Provide only the value of recorded pKd for CCCAACGGCUGCCGAGCGAGAUUACGCUUGAGCGCCCCACUGAGGAGGCCCACGGGCGAUUGGGGCACGG 8.15

Provide only the value of recorded pKd for CCCAAGGACUGCCGAGCGAGAUUACGCUUGAGCGCCCCACUGGGGAUGCCCACGGGCGAUUGGGGCACGG 7.46

Provide only the value of recorded pKd for CCCAACGACUGCCGUGCGAGAUUACGCUUGAGCGCCCCACCGAGGAUGCCCACGGGCGAUUGGGGCACGG 7.08

Provide only the value of recorded pKd for CCCAACGACUGCCGAGCGAGAUUACGCUUGAGCGCCCCACUGAGGAUGCCCACGGGUGAUUGGGGCACGG 8.26

Provide only the value of recorded pKd for CCCAACGGCUGCCGAGCGAGAUUACGCUUGAGCGCCCCUCUGAGGAUGCCCACGGGCGAUUGGGGCACGG 7.66

Provide only the value of recorded pKd for CCCGAAGACUGCCGAGCGAGAUUACGCUUGAGCGCCCCACUGAGGAUGCCCACGGGCGAUUGGGGCACGG 8.17

Provide only the value of recorded pKd for CCCAACGACUGCCGAGCGAGAUUGCGCUUGAGUGCCCCACUGAGGAUGCCCACGGGCGAUUGGGGCACGG 8.24

Provide only the value of recorded pKd for CCCACCGCCUGCCGAGCGAGAUUACGCUUGAGCGCCCCACUGAGGAUGCCCACGGGCGAUUGGGGCACGG 8.06

Provide only the value of recorded pKd for CCCAACGACUGCCGAGCGAGAUGACGCUUGGGCGCCCCACUGAGGAUGCCCACGGGCGAUUGGGGCACGG 8.17

Provide only the value of recorded pKd for CCCAACGACGGCCGAGCGAGAUUACGCUUGAGUGCCCCACUGAGGAUGCCCACGGGCGAUUGGGGCACGG 8.29

Provide only the value of recorded pKd for CCCAUCGACUGCCGAGCGAGAUUACGCUUGAGCGCCCCACUGAGGAUGCCCACGGGUGAUUGGGGCACGG 8.19

Provide only the value of recorded pKd for CCCAACGACUGCCGAGCGAGAUUGCGCUUGAGCGCCCCACUGAGGAUGCCCACGGGCGGUUGGGGCACGG 7.44

Provide only the value of recorded pKd for CCCAACGAGUGCUGAGCGAGAUUACGCUUGAGCGCCCCACUGAGGAUGCCCACGGGCGAUUGGGGCACGG 8.29

Provide only the value of recorded pKd for CCCAACGACUGCCGAGCGAGAUCGCGCUUGAGCGCCCCACUGAGGAUGCCCACGGGCGAUUGGGGCACGG 8.28

Provide only the value of recorded pKd for CCCAACGACUGCCGAGCGAGAUUACGCUUGAGCGCCCCACUGGGGAUGCCCACGGGCGAUUGGGGCACGG 7.61

Provide only the value of recorded pKd for CCCAACGACUGCCGAGCGAGAUUACGCCUGAGCGCCCCUCUGAGGAUGCCCACGGGCGAUUGGGGCACGG 7.29

Provide only the value of recorded pKd for CCCGACGACUGACGAGCGAGAUUACGCUUGAGCGCCCCACUGAGGAUGCCCACGGGCGAUUGGGGCACGG 8.27

Provide only the value of recorded pKd for CCCAACGAUUGCCUAGCGAGAUUACGCUUGAGCGCCCCACUGAGGAUGCCCACGGGCGAUUGGGGCACGG 8.17

Provide only the value of recorded pKd for CCCAACGACGGCCGAGCGAGAUUACGCUUGAGCGCCCCACUGAGGAUGCCCACGGGCGAUUGAGGCACGG 7.78

Provide only the value of recorded pKd for CCCAACGACUGCCGAGCGAGAUUGCGCUUGAGCGCCCCACUGAAGAUGCCCACGGGCGAUUGGGGCACGG 7.73

Provide only the value of recorded pKd for CCCAACGGCUGCCGAGCGAGAUUACGCUUGAGCGCCCCACUGAGGGUGCCCACGGGCGAUUGGGGCACGG 7.75

Provide only the value of recorded pKd for CCCAACGACUGCCGAGCGAGAUUACGCCUGAGCGCCCCACUGAGGAUGCCCUCGGGCGAUUGGGGCACGG 7.49
